Biological target: cyclin D1/cdk 4 enzyme (Homo sapiens)
Construct: made in house; host or cells: Sf9 insect cells, recombinant baculovirus
Sequence (P11802 whole entry, species assumed): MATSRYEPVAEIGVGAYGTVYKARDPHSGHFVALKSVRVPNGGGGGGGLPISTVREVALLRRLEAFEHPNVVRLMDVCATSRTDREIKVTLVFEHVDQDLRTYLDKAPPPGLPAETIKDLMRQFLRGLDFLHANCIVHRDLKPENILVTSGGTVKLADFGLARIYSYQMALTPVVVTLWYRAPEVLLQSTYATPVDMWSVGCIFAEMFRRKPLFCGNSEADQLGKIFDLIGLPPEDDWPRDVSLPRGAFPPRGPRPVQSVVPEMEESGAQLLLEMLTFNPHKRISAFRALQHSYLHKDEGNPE
Sequence (P24385 whole entry partner, species assumed): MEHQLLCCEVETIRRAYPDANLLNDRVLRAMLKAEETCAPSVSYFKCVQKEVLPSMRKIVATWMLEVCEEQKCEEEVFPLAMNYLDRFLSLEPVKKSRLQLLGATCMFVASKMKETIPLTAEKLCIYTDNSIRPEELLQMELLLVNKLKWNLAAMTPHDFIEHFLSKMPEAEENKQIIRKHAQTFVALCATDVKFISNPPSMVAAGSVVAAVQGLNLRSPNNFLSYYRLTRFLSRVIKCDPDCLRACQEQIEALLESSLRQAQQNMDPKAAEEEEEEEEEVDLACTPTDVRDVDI
Assay: CDK4 ELISA kinase assay (phospho-Rb ser 795 detection)
Type: biochemical
Conditions: In Vitro Enzyme Assay, cyclin D1/cdk 4, read-out: CDK4 IC50
pIC50: −log10 of the molar value.
Quantity kind: pIC50

A = NS(=O)(=O)c1ccc(CNC=C2C(=O)NC(=O)c3ccc(C=Cc4ccccn4)cc32)cc1
B = COc1ccc(CNC=C2C(=O)NC(=O)c3ccc(-c4ccc5ccccc5c4)cc32)cc1O
// which entry reports the smaller pIC50, A or B ? Answer by stating the label of the chosen item.
A
(A: 5.62, B: 6.54)
